Origin of values: ChEMBL document CHEMBL1201862

Molecular target: Calpain-2 catalytic subunit (Sus scrofa)
Sequence (P43367 whole entry): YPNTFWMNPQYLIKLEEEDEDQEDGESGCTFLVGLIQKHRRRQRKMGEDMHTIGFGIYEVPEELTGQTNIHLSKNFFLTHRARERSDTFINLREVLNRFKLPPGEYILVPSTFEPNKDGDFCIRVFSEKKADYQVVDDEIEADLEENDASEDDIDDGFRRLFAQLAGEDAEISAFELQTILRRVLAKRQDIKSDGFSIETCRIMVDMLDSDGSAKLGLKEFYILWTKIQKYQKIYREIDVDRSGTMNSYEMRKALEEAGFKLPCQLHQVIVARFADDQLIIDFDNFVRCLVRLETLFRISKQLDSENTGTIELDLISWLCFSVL
Assay: m-calpain protease blockers, concentration series – biochemical, fluorogenic peptide substrate, dose response (AID 1420)
Assay type: functional
The source made the active and inactive calls. The rule behind the calls is not given here.
IC50 values, listed per item
measurement-kind: IC50

>>> df
                                   molecule                               measured_on       reported_result
0  Cc1ccc(C(C#N)c2ccc3c(C(F)(F)F)cc(C(F)(F)F)nc3n2)cc1 (stereo not given)  Calpain-2 catalytic subunit (Sus scrofa)  > 50 µM (not active)
1  O=C(c1cc([N+](=O)[O-])ccc1N1CCOCC1)N1CCCCC1  Calpain-2 catalytic subunit (Sus scrofa)  > 50 µM (not active)
2  CC1(C(=O)NCc2ccc(Cl)c(Cl)c2)Oc2ccccc2NC1=O (stereo not given)  Calpain-2 catalytic subunit (Sus scrofa)  5.76 µM (not active)
3               CCOc1ncccc1C(=O)Nc1nnc(C)s1  Calpain-2 catalytic subunit (Sus scrofa)  > 50 µM (not active)
4  COc1cc2c(cc1[N+](=O)[O-])n(C(C)C)c(=O)n2C(C)C  Calpain-2 catalytic subunit (Sus scrofa)  > 50 µM (not active)
5  COc1cccc(OC)c1-c1nn2c(-c3cc(-c4ccccc4)n[nH]3)nnc2s1  Calpain-2 catalytic subunit (Sus scrofa)  > 50 µM (not active)
6  COc1ccccc1NC(=O)C12CC3CC(C1)CC(c1ccc(C)cc1)(C3)C2  Calpain-2 catalytic subunit (Sus scrofa)  3.42 µM (not active)
7  COc1ccc(OC)c(N(CC(=O)N2CCN(c3cc(Cl)ccc3C)CC2)S(C)(=O)=O)c1  Calpain-2 catalytic subunit (Sus scrofa)  11.7 µM (not active)
8  O=C(Nc1cccc(C(F)(F)F)c1)c1cccn(Cc2ccc3c(c2)OC(F)(F)O3)c1=O  Calpain-2 catalytic subunit (Sus scrofa)  > 50 µM (not active)
9  Cn1nc(C(F)(F)F)c2cc(NC(=O)OCc3ccc(F)cc3)sc21  Calpain-2 catalytic subunit (Sus scrofa)      6.72 µM (active)
